- Tested on: anti-desmoglein-3 scFv antibody binding to human DSG3
- method: blockers of pathogenic pemphigus antibody–desmoglein-3 binding – biochemical, validation compound set, bead-based, flow cytometry, pilot screen (AID 588368);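 also: signal is the median channel fluorescence of bead-bound GFP antibody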
- condition: Protein G beads, DSG3-Fc, scFv-GFP binding, at 10 µM, stronger effect = lower value
test_readout: binding (% of control) (%)

* CCOc1ccc2nc(S(N)(=O)=O)sc2c1 | 101
* C[C@]12CC[C@@H]3c4ccc(O)cc4CC[C@H]3[C@@H]1CCC2=O | 98.9
* CSc1cccc(NC(=O)/C=C/c2ccccc2)c1 | 104
* C=CC1=C(C(=O)O)N2C(=O)C(NC(=O)Cc3ccccc3)C2SC1 (stereo unspecified) | 101
* CC(=O)N(CCC(Cc1ccccc1)c1ccco1)Cc1ccco1 (stereo unspecified) | 97.4
* Oc1[nH]c2ccccc2c1C1=NCCCC1 | 102

====

- method: yeast AGP1-GFP level changes, GLN3 branch – cell-based, multiplex flow cytometry, S. cerevisiae, primary screen (AID 1887);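 also: AGP1-GFP fusion strain of S. cerevisiae within a five-strain barcoded multiplex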
- condition: 3 h, at 10 µM, stronger effect = higher value
Records with an inconclusive call do not appear.
test_readout: GFP response, % of DMSO (%)

* Cc1ccc(Nc2ncccc2C(=O)O)cc1C | 94.7
* CCOC(=O)c1c(C)oc2c1C(=O)c1ccccc1C2=O | 99.9
* COC(=O)c1[nH]c(=O)c2ccccc2c1O | 100
* CS(=O)(=O)Nc1cccc(C(=O)CC2(O)C(=O)Nc3ccc(Br)cc32)c1 (centres undefined) | 129
* Cc1ccc(C(=O)O)cc1NC(=O)c1cccs1 | 98.6
* CCn1nc(C(=O)O)c(=O)c2cc3c(cc21)OCO3 | 98.3
* CN=C(NC#N)NCCSCc1nc[nH]c1C | 102
* COc1ccc(NC(=O)CC(c2ccccc2)c2ccco2)cc1 (centres undefined) | 96.8
* CC(C)(Sc1cc(C(C)(C)C)c(O)c(C(C)(C)C)c1)Sc1cc(C(C)(C)C)c(O)c(C(C)(C)C)c1 | 106
* CC(NC(=O)c1ccc(N2CCNCC2)c([N+](=O)[O-])c1)C12CC3CC(CC(C3)C1)C2 (centres undefined) | 92.6
* COc1ccc(CN2CCCCC2C(=O)Nc2ccc(OC)c(OCC(C)C)c2)cc1OC (centres undefined) | 104
* C/C(=N\NC(=O)c1ccccc1[N+](=O)[O-])c1ccc(Br)s1 | 101
* O=C1C(Cc2ccccc2)NC(=S)N1c1ccccc1 (centres undefined) | 99.4
* COc1ccc(CNCCC(c2ccc(F)cc2)c2ccc(OC(C)C)cc2)cc1OC (centres undefined) | 110
* O=C1CCCC(=O)C1=Cc1c[nH]c2ccccc12 | 106
* CC(C)c1ccc(OCc2ccc(C(=O)O)o2)cc1 | 93.7
* COc1ccc2oc(-c3ccco3)cc(=O)c2c1 | 83.7
* O=C(O)c1cnccn1 | 106
* C[N+]1(C2CCC3CCCC2C3O)CCCCC1 (centres undefined) | 103
* COc1cc2c(cc1OC)C(C)=NC1(CCCCC1)C2 | 107
* COc1cccc(/C=C/C(=O)c2c(O)cc(C)oc2=O)c1O | 91.1
* C[C@@H]1C[C@H](Nc2ccccc2)c2ccccc2N1C(=O)c1cccnc1 | 101
* COc1cc2cc(C(=O)O)[nH]c2c(OC)c1OC | 99.5
* COc1ccc(NS(=O)(=O)c2ccc(N)cc2)nn1 | 102

Data provenance is PubChem BioAssay.
